test_system: Transient receptor potential M8 protein (Canis lupus familiaris, UniProt Q1A7N1)
Sequence (Q1A7N1 whole entry): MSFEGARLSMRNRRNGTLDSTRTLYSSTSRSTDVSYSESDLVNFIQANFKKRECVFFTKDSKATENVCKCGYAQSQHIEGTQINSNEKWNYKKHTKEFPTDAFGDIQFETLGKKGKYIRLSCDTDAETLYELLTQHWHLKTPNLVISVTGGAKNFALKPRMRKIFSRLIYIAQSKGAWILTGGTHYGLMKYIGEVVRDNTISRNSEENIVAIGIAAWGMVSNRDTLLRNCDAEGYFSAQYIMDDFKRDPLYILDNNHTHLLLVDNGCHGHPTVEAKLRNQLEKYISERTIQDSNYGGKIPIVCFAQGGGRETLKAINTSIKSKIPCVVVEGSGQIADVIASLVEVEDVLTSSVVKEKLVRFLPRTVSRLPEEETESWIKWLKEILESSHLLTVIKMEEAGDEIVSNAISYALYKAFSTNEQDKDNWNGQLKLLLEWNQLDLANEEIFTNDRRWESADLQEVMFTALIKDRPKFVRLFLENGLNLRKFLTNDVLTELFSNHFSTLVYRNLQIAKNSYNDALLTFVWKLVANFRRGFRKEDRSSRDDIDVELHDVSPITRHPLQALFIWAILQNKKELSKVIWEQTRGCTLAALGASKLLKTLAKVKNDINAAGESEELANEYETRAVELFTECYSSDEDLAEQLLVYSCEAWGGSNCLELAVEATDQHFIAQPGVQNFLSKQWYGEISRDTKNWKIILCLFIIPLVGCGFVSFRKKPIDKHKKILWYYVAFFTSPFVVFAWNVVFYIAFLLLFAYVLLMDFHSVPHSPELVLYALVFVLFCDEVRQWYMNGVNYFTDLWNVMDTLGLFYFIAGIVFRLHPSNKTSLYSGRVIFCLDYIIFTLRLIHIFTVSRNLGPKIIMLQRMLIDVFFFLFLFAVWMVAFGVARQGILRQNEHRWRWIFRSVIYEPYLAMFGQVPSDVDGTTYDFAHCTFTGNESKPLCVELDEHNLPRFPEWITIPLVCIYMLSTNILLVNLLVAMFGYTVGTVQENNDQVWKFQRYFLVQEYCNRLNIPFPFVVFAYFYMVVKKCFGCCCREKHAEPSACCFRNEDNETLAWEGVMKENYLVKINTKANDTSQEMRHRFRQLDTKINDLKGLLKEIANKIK
protocol_text: Functional Assay: The functional activity of compounds of the formula (I) was determined by measuring changes in intracellular calcium concentration using a Ca2+-sensitive fluorescent dye. The changes in fluorescent signal were monitored by a fluorescence plate reader, either a FLIPR (Molecular Devices) or FDSS (Hamamatsu). Increases in intracellular Ca2+ concentration were readily detected upon activation with icilin.At 24 hrs prior to assay, HEK293 cells stably expressing canine TRPM8 were seeded in culture medium in black wall, clear-base poly-D-lysine coated 384-well plates (BD Biosciences, NJ, USA) and grown overnight in 5% CO2 at 37° C. On assay day, growth media was removed and cells were loaded with Calcium 3 Dye (Molecular Devices) for 35 min at 37° C., under 5% CO2 and then for 25 min at room temperature and atmosphere. Subsequently, cells were tested for agonist-induced increases in intracellular Ca2+ levels using FLIPR or FDSS. Cells were challenged with a compound of the Formula (I) (at varying concentrations) and intracellular Ca2+ was measured for 5 min prior to the addition of icilin to all wells to achieve a final concentration that produces approximately an 80% maximal response. EC50 or IC50 values for compounds of the present invention were determined from eight-point dose-response studies.
Item-by-item account of log10(IC50)
reported_property: log10(IC50) (log10 of the value in nM)

In [3]: df
Out[3]:
                                   molecule  reported_property  quantitative_result
0  CC(C)(C)OC(=O)N1CCCC1CN(c1sc2ccccc2c1Cl)S(=O)(=O)c1ccccc1 (centres undefined)        log10(IC50)                 2.31
1  CCCN(c1sc2ccccc2c1C)S(=O)(=O)c1ccc(C(=O)O)cc1        log10(IC50)                 1.72
2  O=c1[nH]c(-c2ccc(S(=O)(=O)N(CCCCC(F)(F)F)c3sc4ccccc4c3Br)cc2)no1        log10(IC50)                 0.90
3  CCS(=O)(=O)N(Cc1ccc(F)c(OC)c1)c1sc2ccccc2c1C(C)(C)O        log10(IC50)                 0.61
4  O=S(=O)(CC(F)(F)F)N(Cc1ccc(F)c(C(F)(F)F)c1)c1sc2ccccc2c1CO        log10(IC50)                 1.18
5  O=S(=O)(c1cccs1)N(Cc1ccc(F)c(C(F)(F)F)c1)c1sc2ccccc2c1Cl        log10(IC50)                 0.78
6  O=c1[nH]c(-c2ccc(S(=O)(=O)N(CCC(F)(F)F)c3sc4ccccc4c3Br)cc2)no1        log10(IC50)                 1.26
7  CCS(=O)(=O)N(Cc1ccc(F)c(F)c1)c1sc2ccccc2c1C(C)=O        log10(IC50)                 1.18
8  COC(=O)CCS(=O)(=O)N(CCC(F)(F)F)c1sc2ccccc2c1C        log10(IC50)                 1.38
